Reported cytotoxicity at 70.5 h is given for each of the following compounds.
Assay Remarks: Human HepG2 cell viability assay in 384 well format
Format: toxicity, cell-based
Design: dose 125 nL, time 70.5 hour; concentration not given beside the values
Condition Label: HepG2 cells, read-out: Inhibition

>  <Compound>
Cc1ccoc1C(=O)N1CCNCC1C(=O)NCc1ccncc1 (centres undefined)

>  <cytotoxicity at 70.5 h, %>
3.11

$$$$
>  <Compound>
Cc1nn(C)c(C)c1CCC(=O)N1CCCC(n2cncn2)C1 (centres undefined)

>  <cytotoxicity at 70.5 h, %>
-6.31

$$$$
>  <Compound>
NC1CCCN(C(=O)c2csc(-c3ccc(C(F)(F)F)cc3)n2)CC1 (centres undefined)

>  <cytotoxicity at 70.5 h, %>
36.2

$$$$
>  <Compound>
O=C(CO)N1CCC(CCc2ccnc(Nc3cnccn3)c2)CC1

>  <cytotoxicity at 70.5 h, %>
-2.09

$$$$
>  <Compound>
Cc1cc(F)ccc1NC(=O)NCC(C)N1CCOCC1 (centres undefined)

>  <cytotoxicity at 70.5 h, %>
32.7

$$$$
>  <Compound>
COc1cccc(NC(=O)N(CCO)C2CCc3ccccc32)c1 (centres undefined)

>  <cytotoxicity at 70.5 h, %>
-0.598

$$$$
>  <Compound>
Cc1ccccc1CS(=O)(=O)c1nnc(C(C)NC(=O)OC(C)(C)C)o1 (centres undefined)

>  <cytotoxicity at 70.5 h, %>
26.9

$$$$
>  <Compound>
CS(=O)(=O)N1Cc2ccccc2C2(CCN(C(=O)c3ccno3)CC2)C1

>  <cytotoxicity at 70.5 h, %>
7.95

$$$$
>  <Compound>
CCCN1CCC(C(=O)NCCN(CC)c2ccccc2C)CC1

>  <cytotoxicity at 70.5 h, %>
17.6

$$$$
>  <Compound>
Cc1nc(C2CCCN(C(=O)c3c(C)nn4cccnc34)C2)no1 (centres undefined)

>  <cytotoxicity at 70.5 h, %>
-4.04

$$$$
>  <Compound>
CCN(C(=O)CN1CCCC1c1c(C)nn(C)c1OC)C1CC1 (centres undefined)

>  <cytotoxicity at 70.5 h, %>
-6.09

$$$$
>  <Compound>
N#Cc1c(CN2CCCCC2Cn2cncn2)cn2ccccc12 (centres undefined)

>  <cytotoxicity at 70.5 h, %>
5.14

$$$$
>  <Compound>
COC1CN(C(=O)CC(C)C)CCC(=O)N(C)c2ccccc21 (centres undefined)

>  <cytotoxicity at 70.5 h, %>
-7.01

$$$$
>  <Compound>
CCCN(CCS(C)(=O)=O)C1CCc2ccccc2C1 (centres undefined)

>  <cytotoxicity at 70.5 h, %>
-0.462

$$$$
>  <Compound>
CCN1CCC(N2CCC(c3nc(C)cc(C)n3)C2)CC1 (centres undefined)

>  <cytotoxicity at 70.5 h, %>
-2.1

$$$$
>  <Compound>
CC1CN(CCOc2cccc(C#N)c2)CCN1Cc1nccn1C (centres undefined)

>  <cytotoxicity at 70.5 h, %>
-3.4

$$$$
>  <Compound>
CCCN(CC(=O)N(C)C)C(=O)c1ccc(-c2nc(C)cs2)cc1

>  <cytotoxicity at 70.5 h, %>
-6.25

$$$$
>  <Compound>
COc1ccc(-c2cnc(CN3CCn4c(C)nnc4C3)o2)cc1

>  <cytotoxicity at 70.5 h, %>
22.7

$$$$
>  <Compound>
CCOC(=O)CC(C)Nc1nc(C2CCCC2)nc2c1cnn2C (centres undefined)

>  <cytotoxicity at 70.5 h, %>
-12.8

$$$$
>  <Compound>
COCCn1cnnc1CCNc1cc(C)nc2ccnn12

>  <cytotoxicity at 70.5 h, %>
-2.09

$$$$
>  <Compound>
O=C(Nc1cccnc1)N(Cc1ccccc1)C1CC1

>  <cytotoxicity at 70.5 h, %>
-15.3

$$$$
>  <Compound>
c1ccc(OCc2noc3c2CN(c2ncccn2)CC3)nc1

>  <cytotoxicity at 70.5 h, %>
-6.14

$$$$
>  <Compound>
COC(=O)c1ccc(S(=O)(=O)N2CCC(Oc3cccnn3)CC2)cc1

>  <cytotoxicity at 70.5 h, %>
-8.01

$$$$
>  <Compound>
Cn1c(CCCNc2nccnc2C#N)nc2ccccc21

>  <cytotoxicity at 70.5 h, %>
1.96

$$$$
